# Tested on: MARIMO;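 also: after 48 h exposure read by CellTiter-Glo luminescence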
# Method Notes: cell viability relative to vehicle control; higher = less cytotoxic
# Assay Context: 10 µM; SRSF2 genotype: SRSF2 wt/wt
Where a name gives a salt, the structure may show the parent alone.
Measured Endpoint: cell viability (%)
Kindly answer with a numeric value in %, unit omitted.

Here's what some known entries look like.
{"Compound": "COc1ccc(-n2nc(C(N)=O)c3c2C(=O)N(c2ccc(N4CCCCC4=O)cc2)CC3)cc1 [Apixaban]", "Measured Endpoint": "cell viability", "Display Unit": "%", "Val": 112}
{"Compound": "CCCc1cc(=O)[nH]c(=S)[nH]1 [Propylthiouracil]", "Measured Endpoint": "cell viability", "Display Unit": "%", "Val": 96.5}
{"Compound": "CCOC(=O)C1=C(C)NC(C)=C(C(=O)OC)C1c1cccc(Cl)c1Cl (stereo unspecified) [Felodipine (Plendil)]", "Measured Endpoint": "cell viability", "Display Unit": "%", "Val": 88.8}

Requested field: cell viability. Item: COC(=O)CCSCc1ccc(-c2onc(C)c2NC(=O)OC(C)c2ccccc2Cl)cc1 (stereo unspecified)
97.7

Requested field: cell viability. Item: CCS(=O)(=O)N1CCC([C@@H](C)n2c(C)c(C(=O)NCc3c(OC)cc(C)[nH]c3=O)c3ccccc32)CC1
111

Requested field: cell viability. Item: C[C@]12CCC(=O)C=C1[C@@H]1C[C@@H]1[C@H]1[C@@H]3[C@@H]4C[C@@H]4[C@@]4(CCC(=O)O4)[C@@]3(C)CC[C@@H]12 [Drospirenone]
91.8

Requested field: cell viability. Item: Cc1cn([C@H]2O[C@@H](CO)[C@H](O)[C@H]2F)c(=O)[nH]c1=O [Clevudine (Levovir)]
92.2

Requested field: cell viability. Item: O=C(O)CNC(=O)c1nc(Cl)c2ccccc2c1O
91.2

Requested field: cell viability. Item: C[C@@](Cc1ccc(O)c(O)c1)(NN)C(=O)O [Carbidopa]
98.2

Requested field: cell viability. Item: CCCS(=O)(=O)Nc1ccc(F)c(C(=O)c2c[nH]c3ncc(Cl)cc23)c1F
88.4

Requested field: cell viability. Item: CC(COc1ccccc1)N(CCCl)Cc1ccccc1 (stereo unspecified) [Phenoxybenzamine HCl]
72.5
